growth: recorded values
test system: A498 renal; test: NCI-60 one-dose screen, 48 h (100 = growth as untreated, 0 = no growth, -100 = all killed); details: 10 µM unless noted
This is part of a sample that, as a whole, favours compounds with a hit. Of some 83,000 tested, about 20% had one in any assay. The source made the active and inactive calls. Rule for the calls: active = growth percent below 10; inactive = the rest.

Some molecules with known growth results, for comparison:
INSERT INTO measurements (sample_smiles, experimental_target, result) VALUES
  ('N/C(=N\C(N)=N\c1nc2ccccc2s1)c1cccc(F)c1', 'A498 renal', '97.1% [5 µM] (inactive)'),
  ('CC1(C)[C@@H](O)CC[C@]2(C)[C@H]3CC[C@@H]4[C@H]5[C@H](C(=O)/C=C\c6ccc([N+](=O)[O-])cc6)CC[C@]5(O)CC[C@@]4(C)[C@]3(C)CC[C@@H]12', 'A498 renal', '48.7% (inactive)');

[Q] I have this molecule here, `CNC(=O)c1c(NC(=O)c2ccccc2C(F)(F)F)sc2c1CCC(=O)C2` , and I need its recorded growth.
[A] 80.4% (inactive)

[Q] For `Nc1nc(Nc2ccccc2SSc2ccccc2Nc2nc(N)nc(-c3cccc(Br)c3)n2)nc(-c2cccc(Br)c2)n1` , what is its reported growth?
[A] 72% (inactive)

[Q] // returns reported growth for input `N#Cc1cn(Cc2ccc(Cl)cc2Cl)c(C(=O)c2ccc(Br)cc2)c1N`
[A] 86.7% (inactive)

[Q] # growth lookup, item `COc1ccc(-c2cc(-c3ccc(Cl)cc3)c(C#N)c(=O)n2Cc2ccc(C(=O)O)cc2)cc1`
[A] 83% (inactive)

[Q] So what does the record say about growth for `CC1=N[C@@H]2CN(C(=O)OC(C)(C)C)C[C@@H]2n2c1cc1ccccc1c2=O` ?
[A] 114% (inactive)

[Q] Find the recorded growth belonging to `O=C1C(c2ccccc2)=C(N2CCc3ccccc32)OC1(Cl)Cl` and report it.
[A] 69.2% (inactive)

[Q] Param item = `COc1ccc(-n2c(/C=C3\C(=O)Nc4ccccc43)ccc2CO)cc1` ; retrieve measured growth.
[A] 107% (inactive)

----------
system: SN12C renal; assay: NCI-60 one-dose screen, 48 h; conditions: 10 µM unless noted
About 83,000 compounds went through this panel and 20% of them were active in at least one assay; those are over-represented in the sample as a whole. The source made the active and inactive calls. Rule for the calls: active = growth percent below 10; inactive = the rest.
Pick from active, inactive when you respond.

Previously resolved entries follow.
INSERT INTO measurements (molecule, label) VALUES
  ('CC(=O)O[C@@H]1C(=O)N(c2cnccn2)[C@H]1c1ccccc1[N+](=O)[O-]', 'inactive'),
  ('C/C(=N\O)[C@H]1C[C@]23CC[C@]4(C)[C@H](CC[C@@H]5[C@@]6(C)CC/C(=N/O)C(C)(C)[C@@H]6CC[C@]54C)[C@H]2[C@H](C)C1(C)OC3', 'inactive'),
  ('CCO/C=N/C1=C(C#N)C(c2ccc(Cl)cc2)c2sc3c(CC)cccc3c2O1 (configuration not stated)', 'inactive'),
  ('CCO/C=N/C1=C(C#N)C(c2ccc(F)cc2)c2sc3c(CC)cccc3c2O1 (configuration not stated)', 'inactive'),
  ('COc1cccc(N2CCN(c3ncnc4c3[nH]c3ccc(F)cc34)C[C@H]2C)c1', 'inactive');

[Q] For this molecule, state the assay outcome: `CCCSc1nc(Nc2ccc(/C(C)=N\NC(N)=S)cc2)c(C#N)c(-c2ccccc2)n1`
[A] inactive

[Q] Fill in: this test's call for `COc1cc(-c2nn(C(C)(C)C)cc2-c2ccnc(NCCCNS(=O)(=O)c3ccc(Cl)cc3)n2)ccc1Cl` is ___
[A] inactive

[Q] Can you look up the reported call for `COc1cc(OC)c(S(N)(=O)=O)cc1C(C)=O` for me?
[A] inactive

[Q] Assay outcome for Cc1ccc2c(c1)Oc1nc(N)c(C#N)c(N)c1C2Sc1ccc(F)cc1 (configuration not stated) : what was it?
[A] active

[Q] Please let me know the test result on file for `N#Cc1cccc(CN2CCC3=C(C2)C(=O)N(Cc2ccc(Cl)cc2)C2=NCCCN23)c1` .
[A] inactive

[Q] Hey, what did the test say about `COc1ccc(-c2cc(-c3ccc(Cl)cc3)c(C#N)c(=O)n2Cc2ccc(C(=O)O)cc2)cc1` ?
[A] inactive

[Q] Would you mind telling me which call this test gave `C=CCn1c(SCC(=O)Nc2ccc(C(=O)/C=C/c3cccc([N+](=O)[O-])c3)cc2)nnc1-c1c[nH]c2ccccc12` ?
[A] inactive

[Q] Answer briefly: the call reported for `C=C(C)[C@@H]1CC[C@]2(C(=O)NCCCCCN(CCC#N)CCC#N)CC[C@]3(C)[C@H](CC[C@@H]4[C@@]5(C)CCC(=O)C(C)(C)[C@@H]5CC[C@]43C)[C@@H]12` in this assay.
[A] inactive

[Q] Answer briefly: the call reported for `O=C(Nc1ccc2c(ccn2Cc2ccccn2)c1)c1ccnnc1` in this assay.
[A] inactive

----------
tested on: NCI-H460 lung; assay: NCI-60 one-dose screen, 48 h; conditions: 10 µM unless noted
This is part of a sample that, as a whole, favours compounds with a hit. Of some 83,000 tested, about 20% had one in any assay. Calls of active or inactive are those of the source. The calls were made as follows: active = growth percent below 10; inactive = the rest.
// classify into 1 (yes) = active, 0 (no) = inactive

INSERT INTO results (compound, label) VALUES
  ('Nc1nc(N)c2c(n1)NC(c1ccc(Cl)cc1)CC(c1ccc(Nc3nc(NCCO)nc(N4CCOCC4)n3)cc1)=N2 (centres undefined)', '0 (no)');

[Q] State the result this test recorded for `NC(N)=Nc1ccc(Oc2cccc(Nc3ccc(Cl)cc3)c2)cn1` .
[A] 1 (yes)

[Q] Given `C=CCn1c(-c2nc3ccc(C(=C(C#N)C#N)c4ccccc4)cc3[nH]2)cc2cc(Br)ccc21` , state the outcome it received in this test.
[A] 0 (no)

[Q] Could you please tell me the result logged for CNc1ncc2cc(-c3ccc(-c4ncccc4F)cc3Cl)c(=O)n(CC3OCC(N)CO3)c2n1 (centres undefined) in this assay?
[A] 0 (no)

[Q] Just curious, what result did `Cn1ccnc1C(=O)/C=C/c1ccc(CNC(=O)c2ccc(Cl)cc2)cc1` get here?
[A] 1 (yes)

----------
tested on: OVCAR-5 ovarian; test: NCI-60 one-dose screen, 48 h; conditions: 10 µM unless noted
The panel holds about 83,000 compounds, 20% with a hit somewhere; the sample as a whole holds those more often. Calls of active or inactive are those of the source. How the source made its calls: active means growth percent below 10; inactive means the rest.
Pick one and only one: true (active), false (inactive)

Look over these answered cases.
INSERT INTO results (molecule, label) VALUES
  ('O=C(NNc1nc2cc(F)ccc2n2cccc12)c1ccncn1', 'false'),
  ('COc1ccc2c(c1)Oc1nc(N)c(C#N)c(N)c1C2Sc1ccc(C)cc1 (stereo not given)', 'false'),
  ('O=[N+]([O-])c1cc(/C=N/Nc2nc(N/N=C/c3ccc(Cl)c([N+](=O)[O-])c3)nc(N3CCCCC3)n2)ccc1Cl', 'false'),
  ('C#CC(=O)N(c1ccc(OC)cc1OC)C(C(=O)NCC(=O)OCC)c1cccs1 (stereo not given)', 'true'),
  ('NC(N)=Nc1ccc(Oc2cccc(Nc3ccc(Cl)cc3)c2)cn1', 'false');

[Q] For this molecule, state the assay outcome: `O=C(CSc1nnc(-c2ccc(Cl)cc2)n1-c1ccccc1)Nc1cccc(Cl)c1`
[A] false

[Q] Recorded test outcome, item `COc1ccccc1-n1cc(C#N)c(N)c1C(=O)c1ccc(Cl)cc1`
[A] false

[Q] Tell me the assay call for `Nc1ccccc1NC(=O)c1ccc(NC(=O)C/C=C/c2cccnc2)cn1` please.
[A] false

[Q] Given `CC(C)(O)c1cncc(-c2ccc3ncnc(NCc4ccccc4)c3c2)c1` , state the outcome it received in this test.
[A] false

[Q] I'd appreciate the recorded outcome for `COc1ccc(/C(N)=N/C(N)=N/c2nc3ccccc3s2)cc1` from this test.
[A] false

----------
test system: HOP-62 NSCLC; assay: NCI-60 one-dose screen, 48 h; conditions: 10 µM unless noted
Compounds without any hit were thinned out: in the full panel of roughly 83,000, 20% have a hit. The source made the active and inactive calls. The calls were made as follows: active = growth percent below 10; inactive = the rest.
Please reply with one of these outcomes: active, inactive

# example entries with known answers
INSERT INTO results (compound, label) VALUES
  ('C=C1CC[C@@H]2[C@]3(C)COC(c4ccccc4)O[C@@H]3CC[C@@]2(C)[C@@H]1C/C=C1/C(=O)OC[C@H]1O (some centres undefined)', 'inactive'),
  ('CS(=O)(=O)Nc1cc(-c2ccc3ncc(C#N)c(Nc4cccc(Cl)c4F)c3c2)cnc1Cl', 'active');

[Q] What outcome does the record of this test show for `COc1cc(Cn2cc3c(c2)-c2onc(CN4CCOCC4)c2CC3)cc(OC)c1OC` ?
[A] inactive

[Q] Can you look up the reported call for O=C(NNc1nc2cc(F)ccc2n2c(CN3CC4CNCC4C3)ccc12)c1cnccn1 (centres undefined) for me?
[A] inactive

[Q] Fill in: this test's call for `CNC(=O)c1cc(-c2ccc(NS(=O)(=O)c3ccc(C)cc3)cc2)nc2cccnc12` is ___
[A] inactive

[Q] Assay result, entry `O=C1[C@H]2Cc3c([nH]c4ccccc34)[C@@H](c3c(Cl)cccc3Cl)N2C(=O)CN1C1CCN(CC2CCCCC2)CC1` — outcome?
[A] inactive

Sourced from PubChem BioAssay (NCI)
